- Tested on: SF-295 CNS
- Protocol description: NCI tumour cell line growth inhibition, 48 h
Each record here notes measured TGI.
Note: unit µM is implicit; provide only the numeric part.

GET /value?item= NCCN1C(=O)c2cc(Cl)c(Cl)cc2C1(O)c1ccc(Cl)cc1 (stereo not drawn) &field=TGI returns 3.9

---

- System: OVCAR-5 ovarian
- Protocol description: NCI tumour cell line growth inhibition, 48 h
Property measured: GI50

{"Compound": "CCOc1cc2ncc(C#N)c(Nc3ccc(F)c(Cl)c3)c2cc1NC(=O)CC1CCSS1 (stereo not given)", "GI50": "2.1 µM"}
{"Compound": "Fc1cc(-c2csc3n[nH]c(=S)n23)c(Cl)cc1Cl", "GI50": "41 µM"}
{"Compound": "CCOC(=O)c1cnc2c(C)cc(C)cc2c1NCCCN(C)C", "GI50": "4.53 µM"}

Moving on to another compound below.
Form field GI50 for item Cc1ccc(Cl)cc1Nc1nc(C(F)(F)F)ccc1C(N)=O on OVCAR-5 ovarian: 8.48 µM
